Biological target: CDK2 (Homo sapiens)
Construct: endogenous in cells; host or cells: OVCAR3 cells
Experiment: Phospho-RB measurement in OVCAR3 cells (HTRF phospho-RB cellular kit)
Assay type: cell-based
Conditions: inhibition of RB phosphorylation at S807/811 (HTRF), 24 h compound treatment
pIC50: −log10 of the molar value.
quantity-kind: pIC50

>  <smiles>
CC(C)(C)c1nc(-c2cccc(NS(=O)(=O)N3CCn4cnnc4C3)c2F)c(-c2ccnc(NC3CCN(S(C)(=O)=O)CC3)n2)s1

>  <quantity-kind>
pIC50

>  <test-value>
< 5.00

$$$$

Then this molecule:
What pIC50 appears in the records for this molecule with CDK2 (Homo sapiens)? "CC(=O)N1CCN(S(=O)(=O)Nc2cccc(-c3nc(C(C)(C)C)sc3-c3ccnc(NC4CCN(S(C)(=O)=O)CC4)n3)c2F)CC1"
< 5.00

---

Give IC50 for every item shown.
Biological target: CDK2 (Homo sapiens, UniProt P24941)
Construct: endogenous in cells; host or cells: OVCAR3 cells
Experiment: Phospho-RB measurement in OVCAR3 cells (HTRF phospho-RB cellular kit)
Assay type: cell-based
Settings: inhibition of RB phosphorylation at S807/811 (HTRF, TR-FRET ratio 665/620), 24 h compound treatment, 0.3 to 10,000 nM
Answers are plain numbers, in nM.

These solved cases illustrate the format of a correct answer.
>  <smiles>
CC(C)(C)c1nc(-c2cccc(NS(=O)(=O)N3CCC4(CCC4)C3)c2F)c(-c2ccnc(NC3CC4(C3)CS(=O)(=O)C4)n2)s1

>  <readout-units>
nM

>  <test-value>
1190

$$$$
>  <smiles>
CNc1cccc2c1CN(S(=O)(=O)Nc1cccc(-c3nc(C(C)(C)C)sc3-c3ccnc(NC4CC5(C4)CS(=O)(=O)C5)n3)c1F)C2

>  <readout-units>
nM

>  <test-value>
199

$$$$
>  <smiles>
O=S1(=O)CC2(CC(Nc3nccc(-c4sc(N5C6CCC5CN(C5CC(F)(F)C5)C6)nc4-c4cccc(NS(=O)(=O)N5CCc6ccc(Cl)cc65)c4F)n3)C2)C1

>  <readout-units>
nM

>  <test-value>
336

$$$$
>  <smiles>
CC(C)(C)c1nc(-c2cccc(NS(=O)(=O)N3CCc4ccc(C#N)cc43)c2F)c(-c2ccnc(Nc3ccc(S(C)(=O)=O)cc3)n2)s1

>  <readout-units>
nM

>  <test-value>
302

$$$$
>  <smiles>
CS(=O)(=O)[C@H]1CC[C@H](Nc2nccc(-c3sc(C45CC(C(F)(F)F)(C4)C5)nc3-c3cccc(NS(=O)(=O)N4CCc5ccc(C(F)(F)F)cc54)c3F)n2)CC1

>  <readout-units>
nM

>  <test-value>
525

$$$$

// next entry
Fill in the blank: the reported IC50 of "CN(C)c1cccc2c1CN(S(=O)(=O)Nc1cccc(-c3nc(C(C)(C)C)sc3-c3ccnc(NC4CC5(C4)CS(=O)(=O)C5)n3)c1F)C2" is ____.
619

---

Target: CDK2 (Homo sapiens, UniProt P24941)
Construct: endogenous in cells; host or cells: OVCAR3 cells
Test: Phospho-RB measurement in OVCAR3 cells (HTRF phospho-RB cellular kit)
Format: cell-based
Settings: inhibition of RB phosphorylation at S807/811 (HTRF, TR-FRET ratio 665/620), 24 h compound treatment, 0.3 to 10,000 nM
quantity-kind: pIC50
One number for each entry, as −log10 of the molar value.

>  <compound>
CNc1cccc2c1N(S(=O)(=O)Nc1cccc(-c3nc(C(C)(C)C)sc3-c3ccnc(NC4CCN(S(C)(=O)=O)CC4)n3)c1F)CC2 [Example 258]

>  <target-entity>
CDK2 (Homo sapiens, UniProt P24941)

>  <pIC50>
6.36

$$$$
>  <compound>
CC(C)(C)c1nc(-c2cccc(NS(=O)(=O)N3Cc4ccc(C#N)cc4C3)c2F)c(-c2ccnc(NC3CCN(S(=O)(=O)N4CCNCC4)CC3)n2)s1 [Example 149]

>  <target-entity>
CDK2 (Homo sapiens, UniProt P24941)

>  <pIC50>
6.31

$$$$

Hey, can you go through the list below and give me pIC50 for every item?
1. CC(C)(C)c1nc(-c2cccc(NS(=O)(=O)N3CCc4ccc(-c5ccccc5)cc43)c2F)c(-c2ccnc(NC3CC4(C3)CS(=O)(=O)C4)n2)s1 [Example 217]
2. CC(C)(C)c1nc(-c2cccc(NS(=O)(=O)N3CCNc4ccccc43)c2F)c(-c2ccnc(NC3CCN(S(C)(=O)=O)CC3)n2)s1 [Example 106]
3. COc1cccc2c1CN(S(=O)(=O)Nc1cccc(-c3nc(C(C)(C)C)sc3-c3ccnc(NC4CCN(S(C)(=O)=O)CC4)n3)c1F)C2 [Example 78]
4. CN(C)Cc1ccc(Nc2nccc(-c3sc(C(C)(C)C)nc3-c3cccc(NS(=O)(=O)N4CCc5ccc(C#N)cc54)c3F)n2)cc1 [Example 248]
5. CC(C)(C)c1nc(-c2cccc(NS(=O)(=O)N3Cc4ccncc4C3)c2F)c(-c2ccnc(NC3CC4(C3)CS(=O)(=O)C4)n2)s1 [Example 187]
6. CN1CCN(S(=O)(=O)N2CCC(Nc3nccc(-c4sc(C(C)(C)C)nc4-c4cccc(NS(=O)(=O)N5Cc6cccnc6C5)c4F)n3)CC2)CC1 [Example 127]

1. 6.03
2. 6.58
3. 7.18
4. 6.39
5. 6.71
6. 6.68

Would you be so kind as to report pIC50 for each listed record?
1. CC(C)(C)c1nc(-c2cccc(NS(=O)(=O)N3CCc4ncccc43)c2F)c(-c2ccnc(NC3CC4(C3)CS(=O)(=O)C4)n2)s1 [Example 190]
2. O=S1(=O)C[C@@H]2[C@H](C1)[C@H]2Nc1nccc(-c2sc(C34CC(C3)C4)nc2-c2cccc(NS(=O)(=O)N3CCc4c(CO)cccc43)c2F)n1 [Example 13]
3. O=S1(=O)CC2(CC(Nc3nccc(-c4sc(C56CC(C5)C6)nc4-c4cccc(NS(=O)(=O)N5CCc6ccc(C(F)F)cc65)c4F)n3)C2)C1 [Example 27]
4. O=S1(=O)CC2(CC(Nc3nccc(-c4sc(C56CC(C(F)(F)F)(C5)C6)nc4-c4cccc(NS(=O)(=O)N5CCc6ccccc65)c4F)n3)C2)C1 [Example 281]

6.59
7.24
6.79
6.13

Go through the items and report each one's pIC50.
1. CC(C)(C)c1nc(-c2cccc(NS(=O)(=O)N3CCC4(CC4)C3)c2F)c(-c2ccnc(NC3CCN(S(=O)(=O)N4CCNCC4)CC3)n2)s1 [Example 175]
2. O=S1(=O)CC2(CC(Nc3nccc(-c4sc(C56CC(C5)C6)nc4-c4cccc(NS(=O)(=O)N5CCc6cc(C(F)(F)F)ccc65)c4F)n3)C2)C1 [Example 35]
3. CS(=O)(=O)C1CCC(Nc2nccc(-c3sc(C45CC(C(F)(F)F)(C4)C5)nc3-c3cccc(NS(=O)(=O)N4Cc5cccc(C(F)F)c5C4)c3F)n2)CC1 (centres unmarked) [Example 58]
4. CC1CCN(S(=O)(=O)Nc2cccc(-c3nc(C(C)(C)C)sc3-c3ccnc(NC4CCN(S(C)(=O)=O)CC4)n3)c2F)CC1 [Example 63]
5. CC(C)(C)c1nc(-c2cccc(NS(=O)(=O)N3CCOc4ccccc4C3)c2F)c(-c2ccnc(NC3CCN(S(C)(=O)=O)CC3)n2)s1 [Example 91]
6. O=S1(=O)CC2(CC(Nc3nccc(-c4sc(N5C6CCC5CN(C5CC(F)(F)C5)C6)nc4-c4cccc(NS(=O)(=O)N5Cc6cccc(C(F)F)c6C5)c4F)n3)C2)C1 [Example 52]

6.03
5.80
6.55
6.17
6.93
6.80

Answer for every listed entry: what is its pIC50? The entries follow.
1. CN1CCN(S(=O)(=O)Nc2cccc(-c3nc(C(C)(C)C)sc3-c3ccnc(NC4CCN(S(C)(=O)=O)CC4)n3)c2F)CC1=O [Example 89]
2. CC(C)(C)c1nc(-c2cccc(NS(=O)(=O)N3Cc4cccc(Oc5cccc(F)c5)c4C3)c2F)c(-c2ccnc(NC3CC4(C3)CS(=O)(=O)C4)n2)s1 [Example 214]
3. CN(c1cccc2c1NCC2)S(=O)(=O)Nc1cccc(-c2nc(C(C)(C)C)sc2-c2ccnc(NC3CCN(S(C)(=O)=O)CC3)n2)c1F [Example 259]
4. N=S1(=O)CC2(CC(Nc3nccc(-c4sc(C56CC(C5)C6)nc4-c4cccc(NS(=O)(=O)N5CCc6ccccc65)c4F)n3)C2)C1 (centres unmarked) [Example 271]
5. O=S1(=O)CC2(CC(Nc3nccc(-c4sc(N5C6CCC5COC6)nc4-c4cccc(NS(=O)(=O)N5Cc6ccncc6C5)c4F)n3)C2)C1 [Example 212]

1. 5.32
2. 6.27
3. 5.69
4. 5.09
5. 6.18

---

Biological target: CDK2 (Homo sapiens, UniProt P24941)
Construct: endogenous in cells; host or cells: OVCAR3 cells
Assay: Phospho-RB measurement in OVCAR3 cells (HTRF phospho-RB cellular kit)
Format: cell-based
Details: inhibition of RB phosphorylation at S807/811 (HTRF, TR-FRET ratio 665/620), 24 h compound treatment, 0.3 to 10,000 nM
Assign IC50 to each entry below.
Answers are plain numbers, in nM.

>  <compound>
CC(C)(C)c1nc(-c2cccc(NS(=O)(=O)N3CCC4(CCC4)C3)c2F)c(-c2ccnc(NC3CCN(S(C)(=O)=O)CC3)n2)s1 [Example 174]

>  <IC50, nM>
853

$$$$
>  <compound>
CC(C)(C)c1nc(-c2cccc(NS(=O)(=O)N3Cc4ccc(CC#N)cc4C3)c2F)c(-c2ccnc(NC3CC4(C3)CS(=O)(=O)C4)n2)s1 [Example 246]

>  <IC50, nM>
334

$$$$

Item CN(C)C(=O)c1cccc2c1CN(S(=O)(=O)Nc1cccc(-c3nc(C(C)(C)C)sc3-c3ccnc(NC4CCN(S(C)(=O)=O)CC4)n3)c1F)C2 [Example 163] has what recorded IC50?
2430
